Each recorded value in this set is attributed to paper PMC12416549.

Each entry below lists one item and its recorded apparent Kd (screen) value.
Target: T1, TNFR1 (Homo sapiens, UniProt P19438)
T1 chain: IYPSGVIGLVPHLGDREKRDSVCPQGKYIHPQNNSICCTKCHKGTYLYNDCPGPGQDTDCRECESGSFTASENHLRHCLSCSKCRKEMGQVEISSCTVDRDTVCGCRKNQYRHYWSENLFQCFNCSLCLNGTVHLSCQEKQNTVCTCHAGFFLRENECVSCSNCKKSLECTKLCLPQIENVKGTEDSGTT
Experiment: yeast display SC50

- binder: "V102F (designed binder) SMEEEVEKAAKEYEKKKKEAIEKHLEKLKAKDKEAAERFLKELEEAAKEYAKDEAKTMSEEEAKRRAKKYKEKVLLSELSEEEQKEIKEAEEKLVRTILKYFEEAAK"
  apparent Kd (screen), pM: 10400
- binder: "L43Q (designed binder) SMEEEVEKAAKEYEKKKKEAIEKHLEKLKAKDKEAAERFLKEQEEAAKEYAKDEAKTMSEEEAKRRAKKYKEKVLLSELSEEEQKEIKEAEEKLVRTILKYVEEAAK"
  apparent Kd (screen), pM: 446
- binder: "K31M (designed binder) SMEEEVEKAAKEYEKKKKEAIEKHLEKLKAMDKEAAERFLKELEEAAKEYAKDEAKTMSEEEAKRRAKKYKEKVLLSELSEEEQKEIKEAEEKLVRTILKYVEEAAK"
  apparent Kd (screen), pM: 490
- binder: "K93G (designed binder) SMEEEVEKAAKEYEKKKKEAIEKHLEKLKAKDKEAAERFLKELEEAAKEYAKDEAKTMSEEEAKRRAKKYKEKVLLSELSEEEQKEIKEAEEGLVRTILKYVEEAAK"
  apparent Kd (screen), pM: 790
